Measured values drawn from patent US8188139B2 for this set.

Biological target: mGlyT-1b (Mus musculus, UniProt P28571)
Construct: host or cells: Flp-in-CHO
Sequence (P28571 1-651 isoform P28571-2): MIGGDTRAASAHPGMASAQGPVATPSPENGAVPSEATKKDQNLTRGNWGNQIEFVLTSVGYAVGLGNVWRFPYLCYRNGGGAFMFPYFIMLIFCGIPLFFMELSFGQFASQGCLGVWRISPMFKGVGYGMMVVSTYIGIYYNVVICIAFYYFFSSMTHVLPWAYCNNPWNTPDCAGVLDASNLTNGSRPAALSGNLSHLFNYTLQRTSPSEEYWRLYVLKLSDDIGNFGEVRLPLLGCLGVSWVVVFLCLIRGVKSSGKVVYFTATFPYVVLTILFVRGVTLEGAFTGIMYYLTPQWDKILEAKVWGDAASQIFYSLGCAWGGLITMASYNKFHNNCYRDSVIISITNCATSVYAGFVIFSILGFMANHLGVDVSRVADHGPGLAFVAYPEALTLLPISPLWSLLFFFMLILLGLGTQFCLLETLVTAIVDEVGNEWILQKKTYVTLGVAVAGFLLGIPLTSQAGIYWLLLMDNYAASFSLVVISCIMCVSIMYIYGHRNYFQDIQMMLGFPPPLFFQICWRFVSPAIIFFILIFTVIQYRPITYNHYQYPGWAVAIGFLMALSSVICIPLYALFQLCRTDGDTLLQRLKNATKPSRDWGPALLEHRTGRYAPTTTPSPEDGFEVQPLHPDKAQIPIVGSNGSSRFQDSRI
Assay: Glycine uptake inhibition assay (mGlyT-1b)
Format: cell-based
Conditions: inhibition of [3H]-glycine uptake in Flp-in-CHO cells transfected with mGlyT-1b cDNA; 20 min preincubation at 22° C.; read-out: IC50 (μM) at GlyT-1
Here, each record is paired with measured log10 of IC50 data.
Could you please treat all values as log10 of IC50 in µM?

[Q] What does the data say about its log10 of IC50? Entry: C[C@H](Oc1ccc(S(C)(=O)=O)cc1C(=O)N1Cc2ccc(-c3ccccc3F)cc2C1)C(F)(F)F [Example 335]
[A] -1.51

[Q] Quick one: log10 of IC50 of C[C@H](Oc1ccc(S(C)(=O)=O)cc1C(=O)N1Cc2ccc(OCCC(F)(F)F)cc2C1)C(F)(F)F [Example 370] ?
[A] -1.33

[Q] For C[C@H](Oc1ccc(S(C)(=O)=O)cc1C(=O)N1Cc2ccc(-n3cccn3)cc2C1)C(F)(F)F [Example 347] , what is its reported log10 of IC50?
[A] -1.37

[Q] Which log10 of IC50 value is on record for CS(=O)(=O)c1ccc(OCC(F)(F)C(F)(F)F)c(C(=O)N2Cc3cc(F)c(OC4CCOCC4)cc3C2)c1 [Example 379] ?
[A] -2.15

[Q] Requested read-out: log10 of IC50. Entry: CS(=O)(=O)c1ccc(OCC(F)(F)C(F)(F)F)c(C(=O)N2Cc3ccc(OC4CCOCC4)cc3C2)c1 [Example 374]
[A] -2.52

New cases:
[Q] Which log10 of IC50 is reported for this molecule? C[C@H](Oc1ccc(S(C)(=O)=O)cc1C(=O)N1Cc2ccc(-c3ccc(F)cc3)nc2C1)C(F)(F)F [Example 382]
[A] -1.62

[Q] I have this molecule here, C[C@H](Oc1ccc(S(C)(=O)=O)cc1C(=O)N1Cc2cc(-c3ccc(F)cc3)cnc2C1)C(F)(F)F [Example 322] , and I need its recorded log10 of IC50.
[A] -1.92

----------
Target: mGlyT-1b (Mus musculus)
Construct: host or cells: Flp-in-CHO
Test: Glycine uptake inhibition assay (mGlyT-1b)
Format: cell-based
Settings: inhibition of [3H]-glycine uptake in Flp-in-CHO cells transfected with mGlyT-1b cDNA; 20 min preincubation at 22° C.; read-out: IC50 (μM) at GlyT-1
We label by threshold. Values of IC50 strictly beneath 0.03 µM are 1.0. Values of 0.03 µM and up are 0.0.

Consider the following illustrative entries.
[Q] Report whether reported IC50 is lower than 0.03 µM (strictly) for COc1ccc2c(c1)CN(C(=O)c1cc(S(C)(=O)=O)ccc1OC(C)C)C2
[A] 0.0

[Q] Is the reported IC50 for CCOc1cc2c(cc1C(F)(F)F)CN(C(=O)c1cc(S(C)(=O)=O)ccc1OC(C)C)C2 strictly below 0.03 µM?
[A] 0.0

[Q] IC50 strictly < 0.03 µM for this molecule? C[C@H](Oc1ccc(S(C)(=O)=O)cc1C(=O)N1Cc2ccc(C3CCOC3)cc2C1)C(F)(F)F (stereo partly shown)
[A] 1.0

[Q] Does the reported IC50 of Cc1csc(-c2ccc3c(c2)CN(C(=O)c2cc(S(C)(=O)=O)ccc2O[C@@H](C)C(F)(F)F)C3)c1 stay below 0.03 µM?
[A] 1.0

[Q] For this molecule, is IC50 lower than 0.03 µM? Cc1cc2c(cc1Cl)CN(C(=O)c1cc(S(C)(=O)=O)ccc1O[C@@H](C)C(F)(F)F)C2
[A] 1.0

[Q] I'd appreciate it if you could check whether C[C@H](Oc1ccc(S(C)(=O)=O)cc1C(=O)N1Cc2cc(Cl)c(N3C[C@@H]4C[C@H]3CO4)cc2C1)C(F)(F)F has IC50 smaller than 0.03 µM.
[A] 0.0

[Q] is_below(IC50, 0.03 µM) for CS(=O)(=O)c1ccc(OCC(F)(F)C(F)F)c(C(=O)N2Cc3cnc(C(F)(F)F)cc3C2)c1 ?
[A] 0.0

[Q] For this molecule, is IC50 lower than 0.03 µM? C[C@H](Oc1ccc(S(C)(=O)=O)cc1C(=O)N1Cc2ccc(OC(F)(F)F)cc2C1)C(F)(F)F
[A] 0.0

[Q] Say whether its IC50 is strictly beneath 0.03 µM. Entry: Cc1ccsc1-c1ccc2c(c1)CN(C(=O)c1cc(S(C)(=O)=O)ccc1O[C@@H](C)C(F)(F)F)C2
[A] 0.0

[Q] Find out if reported IC50 for CC(C)Oc1ccc(S(C)(=O)=O)cc1C(=O)N1Cc2cc(Cl)c(OC3CCOCC3)cc2C1 is less than 0.03 µM
[A] 1.0

Continuing:
[Q] Hello, I'm reviewing records and need to know if IC50 of C[C@H](Oc1ccc(S(C)(=O)=O)cc1C(=O)N1Cc2cnc(N3CCOCC3)cc2C1)C(F)(F)F is below 0.03 µM. Could you check?
[A] 1.0

[Q] In the record for CS(=O)(=O)c1ccc(OCC(F)(F)C(F)(F)F)c(C(=O)N2Cc3cc(C(F)(F)F)cnc3C2)c1 , is IC50 less than 0.03 µM?
[A] 1.0

[Q] Does C[C@H](Oc1ccc(S(C)(=O)=O)cc1C(=O)N1Cc2ccc(-c3ccncc3)cc2C1)C(F)(F)F have IC50 strictly under 0.03 µM?
[A] 1.0
